Exercise: for every item that follows, state its recorded Tmax.
# test-protocol: Pharmacokinetic experiments in ICR mice (plasma)
# Type: in vivo
# run-parameters: mouse, single oral administration 10 mg/kg, plasma
Return type: number; implicit unit min.

Kindly note the recorded Tmax for CNC(=O)c1ncc(-c2cc3c(cc2OC)-c2cc(=O)c(C(=O)O)cn2C(C(C)(C)C)C3)s1 (centres unmarked) , which is 30

Input COCc1ncc(-c2cc3c(cc2OC)-c2cc(=O)c(C(=O)O)cn2C(C(C)(C)C)C3)s1 (centres unmarked) . Output Tmax: 30

###

Assignment: determine reported AUC(0-inf) for the given compounds.
# test-protocol: Pharmacokinetic experiments in ICR mice (plasma)
# Assay type: in vivo
# run-parameters: mouse, single oral administration 10 mg/kg, plasma
Return type: number; implicit unit µg·h/mL.

For this compound ( COCc1ncc(-c2cc3c(cc2OC)-c2cc(=O)c(C(=O)O)cn2C(C(C)(C)C)C3)s1 (centres unmarked) ), measured AUC(0-inf) is 1.4

Just so you know, measured AUC(0-inf) for CNC(=O)c1ncc(-c2cc3c(cc2OC)-c2cc(=O)c(C(=O)O)cn2C(C(C)(C)C)C3)s1 (centres unmarked) came out at 5.29
